Source: PubChem BioAssay AID1445

Target: Aminopeptidase N (Plasmodium falciparum (isolate 3D7))
Assay: malaria alanyl aminopeptidase activity blockers – biochemical, fluorogenic H-Leu-NHMec substrate, 1536-well (AID 1445);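 also: plate controls were DMSO full reaction for no effect and no enzyme background for full effect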
Conditions: recombinant M1AAP, H-Leu-NHMec fluorogenic kinetic assay; at 30 µM
About 910 (0.41%) of roughly 220,000 compounds were called active.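 The calls were made as follows: active = primary inhibition above the hit cutoff, then over 50% inhibition at one or more dose response concentrations (cut at about 23% in these data, passing the limit was not always enough); inconclusive = conflicting primary data, or primary hits not chosen for dose response; inactive = low primary inhibition, or under 50% at every dose.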 Only a selection was taken, and actives are over-represented in it overall. Results with a measured potency or affinity are listed apart.
# output must be one of active, inactive

COc1ccc(-c2ccc(N(C)C)cc2)cc1[C@H]1[C@H]2C=CC[C@@H](C)[C@@H]2C(=O)N1Cc1ccccc1    inactive

Request: Please share the test call associated with `CCc1cc2ccc(C)cc2nc1SCC(=O)Nc1cc(OC)c(OC)cc1C(=O)O` .
Response: inactive

Request: Also need `O=c1oc2ccccc2nc1/C=C(O)/C=C\c1ccccc1` , thanks.
Response: inactive

Request: Also need `CCOC(=O)N1CCN(C(=O)c2ccc3c(c2)ncn3C2CCCC2)CC1` , thanks.
Response: inactive

Request: Also need `COC(=O)N/N=C/c1cc(OC)c(O)c([N+](=O)[O-])c1` , thanks.
Response: inactive

Request: Also need `CCOC(=O)c1sc2nc(C(C)C)c3c(c2c1N)CC(C)(C)OC3` , thanks.
Response: inactive

Request: Also need `CCOC(=O)c1ccccc1NC(=O)c1cn(-c2ccc(C)c(C)c2)c(=O)c2ccccc12` , thanks.
Response: inactive

Request: Also need COC(=O)[C@@H](NC(=O)NC(C)CCc1ccccc1)C(C)C (stereo not given in full) , thanks.
Response: active

Request: Also need `COc1cc(/C=N/NC(=O)Cc2c[nH]c3ccccc23)cc(OC)c1OC` , thanks.
Response: inactive

###

Biological target: Aminopeptidase N (Plasmodium falciparum (isolate 3D7))
Test: malaria alanyl aminopeptidase activity blockers – biochemical, fluorogenic H-Leu-NHMec substrate, 1536-well (AID 1445);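 also: plate controls were DMSO full reaction for no effect and no enzyme background for full effect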
Details: recombinant M1AAP, H-Leu-NHMec fluorogenic kinetic assay; at 30 µM, hits give high values unless noted
About 910 (0.41%) of roughly 220,000 compounds were called active. The entries come from a sample that favours actives as a whole. Potency and affinity values are given separately.
Please provide measured inhibition for the entries that follow.
One number for each entry, in %.

COCCCNC(=O)c1cc2c(=O)n3cccc(C)c3nc2n(C(C)C)c1=N    21.8

Could you tell me inhibition for each of these compounds? They are listed below.
1. CNC(=O)c1ccc(-c2ccccc2)s1
2. O=C(COC(=O)c1ccc(NS(=O)(=O)c2cccs2)cc1O)Nc1nc2ccccc2s1
3. COC1=C(Nc2ccccc2OC)C(=O)c2ccccc2C1=O
4. COC(=O)c1sc2nc(-c3ccccc3)c3c(c2c1N)CCCC3
5. O=C(CN(c1ccccn1)S(=O)(=O)c1ccccc1)Nc1ccccc1
6. COc1cccc(NC(=O)C(Sc2nnc(-c3ccncc3)n2-c2ccc(Cl)cc2)c2ccccc2)c1 (configuration not stated)
7. CC(=O)Nc1ccc(-c2ccccc2)s1

Response:
[1.69, 8.12, 7.8, 0.85, -0.68, -1.95, 25.4]

Could you tell me inhibition for each of these compounds? They are listed below.
1. O=C(Nc1ccc(S(=O)(=O)NCc2ccco2)cc1)c1ccncc1
2. Cc1ccc(C)c(CN2CCCN(C(=O)Cn3ncc4c3-c3ccccc3OC4)C2)c1
3. C=CCn1c(COc2ccccc2)nnc1SCC(=O)O
4. CC(=O)Nc1ccc(NC(C)=O)s1
5. O=C(NC1CCCC1)C(c1ccccc1F)N(C(=O)c1ccco1)C1CCCC1 (configuration not stated)
6. O=C(NCc1ccco1)C1CCCN(S(=O)(=O)c2cccc3nsnc23)C1 (configuration not stated)
7. COc1ccc(C(C(=O)NC(C)(C)C)N(C(=O)CNC(=O)c2cccs2)c2ccc(C)cc2)cc1OC (configuration not stated)
8. Cc1ccc2c(c1)-c1c(cnn1CC(=O)O)CO2

Response:
[6.85, 3.24, 0.9, 2.97, 25, 5.11, -2.96, 0.53]

Request: Request the reported inhibition associated with O=C(NCc1ccc2c(c1)OCO2)C1CCCN(S(=O)(=O)c2cccc3cccnc23)C1 (configuration not stated)
Response: 18.6
